// activation lookup, one value per entry
# protocol_text: qHTS assay for environmental chemicals that activate the Aryl hydrocarbon Receptor (AhR) signaling pathway (AID 651777); also: % of control where 0% means no effect; nearly all actives have a fitted effect of over 15% in size
# cond: 1A2-DRE human hepatoma cells, luciferase, 24 h; hits give high values
Inconclusive results are not listed.
quantity_kind: activation (%)

                               smiles_input  unit_tag  quantitative_readout
0     CCCOCC(=Nc1ccc(Cl)cc1C(F)(F)F)n1ccnc1         %                    14
1  C=CCC1=C(C)[C@@H](OC(=O)[C@@H]2[C@@H](C=C(C)C)C2(C)C)CC1=O         %                  1.77
2                         CCCCCCCCCCCCN(C)C         %                 -2.66
3                                  CNC(=S)S         %                 0.794
4                                     C#CCO         %                  1.07
5  Oc1ccc(C(c2ccc(O)cc2)(C(F)(F)F)C(F)(F)F)cc1         %                 0.672
